protocol text: Cytotoxicity, MTT, L6 cells
Assay type: cell-based
condition label: rat, L-6 cells, concentration inducing 50% of cell growth arrest, three days
Method: The rat L-6 and human MRC-5 cell lines were routinely grown in RPMI 1640 supplemented with 11 mM glucose, 27.5 mM NaHCO3, 100 UI/mL penicillin, 100 μg/mL streptomycin and 10% fetal calf serum (RPMI-FCS), in a 5% CO2 incubator at 37°C. […] The cells were left overnight in the incubator then the OD at 540nm was measured with the Bio-Tek FL600™ microplate reader equipped with the KC4™ software. […]
Please go through the items and note down their CC50 at 3 days.
Entry rule: numbers only, all in µM.

Would you kindly share the measured CC50 at 3 days for CCN(CC)Cc1cccc(CNc2ccnc3cc(Cl)ccc23)c1 [Compound 2] ?
20.6

What do we get for CCN(CC)Cc1ccc(-c2ccc(CNc3ccnc4cc(Cl)ccc34)cc2)cc1 [Compound 4] ?
2.8

Another compound to look at: CCN(CC)Cc1ccccc1CNc1ccnc2cc(Cl)ccc12 [Compound 1]
27.7

Please do the same for CCN(CC)Cc1ccc(CNc2ccnc3cc(Cl)ccc23)cc1 [Compound 3] as well.
13.8
